assay-system: full length human TPH1 (Homo sapiens, UniProt P17752)
Construct: To generate the enzyme, full length human TPH1 is cloned into the plasmid pET20b(+); made in house; host or cells: E. coli
Sequence (P17752 whole entry): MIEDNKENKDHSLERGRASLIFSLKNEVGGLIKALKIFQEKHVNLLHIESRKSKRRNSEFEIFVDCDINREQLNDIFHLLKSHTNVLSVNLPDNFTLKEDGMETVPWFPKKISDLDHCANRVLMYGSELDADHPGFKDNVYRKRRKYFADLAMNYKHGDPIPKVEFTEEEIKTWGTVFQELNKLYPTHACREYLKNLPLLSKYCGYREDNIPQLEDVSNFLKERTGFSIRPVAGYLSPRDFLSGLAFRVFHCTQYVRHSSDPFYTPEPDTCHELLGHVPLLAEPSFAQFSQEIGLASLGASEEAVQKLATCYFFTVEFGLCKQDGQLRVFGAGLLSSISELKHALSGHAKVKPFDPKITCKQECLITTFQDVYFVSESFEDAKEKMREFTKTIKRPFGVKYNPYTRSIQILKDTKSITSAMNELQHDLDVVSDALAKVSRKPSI
experiment-summary: Biochemical in vitro assay using fluorescence readout (TPH1 enzyme activity)
conditions-used: Table 1, mean where determined several times
pIC50: −log10 of the molar value.
parameter-measured: pIC50

A = N#Cc1ccc(OCC(=O)N2CCc3nc4n(c3C2c2ccc(C3CC3)cc2F)CCNC4)c(Cl)c1 (stereo not shown)
B = CCc1nc(C)ccc1OCC(=O)N1CCc2nc3n(c2C1c1ccc(C2CC2)cc1F)CCNC3 (stereo not shown)
Recorded pIC50 values differ for A and B ; which one is higher? API: response body contains the label of the selected item.
B
(B: 7.27, A: 7.04)

a = O=C(COc1cccnc1C(F)(F)F)N1CCc2nc3n(c2C1c1ccc(C2CC2)cc1F)CCNC3 (stereo not shown)
b = CCc1nc(C(=O)NC2CC2)ccc1OCC(=O)N1CCc2nc3n(c2[C@@H]1c1ncc(C2CC2)cc1F)CCS3
Looking only at measured pIC50, which entry is lower, a or b ? Mark your answer with the label of the selected entry.
a

1 = CC(=O)N1CCn2c(nc3c2C(c2ncc(C4CC4)cc2F)N(C(=O)COc2cc(F)cnc2Cl)CC3)C1 (stereo not shown)
2 = CN(C)C(=O)c1ccc(OCC(=O)N2CCc3nc4n(c3C2c2sc(C(=O)N(C)C)cc2F)CCOC4)c(Cl)n1 (stereo not shown)
I would appreciate it if you could say which entry, 1 or 2 , has the lower pIC50 value. Mark your answer with the label of the selected entry.
1
(1: 6.37, 2: 7.43)

----------
assay-system: full length human TPH1 (Homo sapiens, UniProt P17752)
Construct: To generate the enzyme, full length human TPH1 is cloned into the plasmid pET20b(+); made in house; host or cells: E. coli
experiment-summary: Biochemical in vitro assay using fluorescence readout (TPH1 enzyme activity)
conditions-used: Table 1, mean where determined several times
pIC50: −log10 of the molar value.
parameter-measured: pIC50

Worked cases, pIC50 given:
> print(dat)
                                   compound  meas.value
1  O=C(COc1ccc(N2CCOCC2)cc1Cl)N1CCc2nc3n(c2C1c1ccc(C2CC2)cc1F)CCNC3 (stereo not shown)        7.62
2  CN1CCN(c2ccc(OCC(=O)N3CCc4nc5n(c4C3c3ccc(Cl)cc3F)CCS5)c(Cl)n2)S1(=O)=O (stereo not shown)        7.92
3  CS(=O)(=O)Nc1ccc(OCC(=O)N2CCc3nc4n(c3C2c2ccc(Cl)cc2F)CCCC4)c(C2CC2)n1 (stereo not shown)        7.68

1 = COCCOc1ccc(C2c3c(nc4n3CCCC4)CCN2C(=O)COc2ccc(NS(C)(=O)=O)nc2Cl)c(F)c1 (stereo not shown)
2 = COCCN(C)c1ccc(OCC(=O)N2CCc3nc4n(c3C2c2ccc(Cl)cc2F)CCCC4)c(Cl)n1 (stereo not shown)
3 = CC(=O)N1CCn2c(nc3c2C(c2ncc(C)cc2F)N(C(=O)COc2ccc(N4CCOCC4)nc2Cl)CC3)C1 (stereo not shown)
4 = CC(=O)N1CCn2c(nc3c2C(c2sccc2F)N(C(=O)COc2ccc(N4CCOCC4)nc2Cl)CC3)C1 (stereo not shown)
Arrange the 4 compounds from largest to smallest pIC50. Show the ranking through the labels, in the order asked for.
4, 3, 1, 2

Reference for the values: patent US10189839B2
